Recorded LD50 values for a group of molecules are listed next.
assay: Mammalian toxicity, LD50 in mice; assay type: in vivo, mouse; details: in vivo; mouse; measure of mammalian toxicity
test readout: LD50 (mg/kg)

molecule: Cc1ncccc1C1CCCN1 (stereo not shown)
recorded number: 100
--
molecule: Cc1ccc(C2CCCN2C)c(C)n1 (stereo not shown)
recorded number: 41
--
molecule: CN1CCC[C@H]1c1cccnc1 [l-nicotine, reference compound]
recorded number: 0.26
--
molecule: Cc1ncccc1C1CCCCN1 (stereo not shown)
recorded number: 15.7

Recorded values, source patent US4155909A.
